Attribution: patent EP4471049A1

Target: human IL-23R (Homo sapiens, UniProt Q5VWK5)
Sequence (Q5VWK5 22-629): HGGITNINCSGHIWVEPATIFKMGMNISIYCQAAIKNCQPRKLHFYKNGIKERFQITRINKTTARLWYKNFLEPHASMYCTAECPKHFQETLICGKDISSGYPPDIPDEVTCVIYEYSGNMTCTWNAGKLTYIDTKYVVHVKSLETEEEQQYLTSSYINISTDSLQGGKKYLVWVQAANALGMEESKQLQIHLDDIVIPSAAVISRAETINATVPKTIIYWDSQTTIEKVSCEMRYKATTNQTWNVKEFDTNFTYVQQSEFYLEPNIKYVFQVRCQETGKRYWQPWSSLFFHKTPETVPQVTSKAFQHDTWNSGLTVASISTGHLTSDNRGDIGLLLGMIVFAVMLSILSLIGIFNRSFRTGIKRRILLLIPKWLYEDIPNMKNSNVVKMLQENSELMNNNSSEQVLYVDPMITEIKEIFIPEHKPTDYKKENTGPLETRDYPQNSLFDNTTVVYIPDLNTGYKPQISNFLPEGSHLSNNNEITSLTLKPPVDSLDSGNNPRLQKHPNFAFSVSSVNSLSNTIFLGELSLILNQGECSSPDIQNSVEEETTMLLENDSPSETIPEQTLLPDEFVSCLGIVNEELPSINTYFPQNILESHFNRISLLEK
Test: biochemical
*1 amine or outer side, *2 acyl side, *3 side chain or, on linkers, in order; H or OH if unused. Where a SMILES comes first, the peptide text is derived from it. Bridges are numbered along the chain shown (N, C = ends). [ ]: non-standard residue; d: D form. 2Nal = N[C@@H](Cc1ccc2ccccc2c1)C(=O)O; AEF = NCCOc1ccc(C[C@H](N)C(=O)O)cc1; X1 = O=C(Cc1ccc(CN[*:1])cc1)[*:2]; 3Pal = N[C@@H](Cc1cccnc1)C(=O)O; αMeL = CC(C)C[C@](C)(N)C(=O)O; β3hL = CC(C)C[C@H](N)CC(=O)O; Dab = NCC[C@H](N)C(=O)O
Quick list: % displacement (hIL-23R binding) per entry.
State the answer as a number, implicitly in %.

Solved cases below.
CNC(=O)[C@H](Cc1cccnc1)NC(=O)[C@H](CCN)NC(=O)[C@@H]1CCC(=O)NCc2ccc(cc2)CC(=O)N[C@@H](C)C(=O)N[C@H]2CCC(=O)NCC[C@H](NC(=O)[C@H](CCC(N)=O)NC(=O)[C@H](Cc3c[nH]c4ccccc34)NC2=O)C(=O)N[C@@H](Cc2c[nH]c3ccccc23)CC(=O)N[C@@H](Cc2ccc3ccccc3c2)C(=O)NC(C)(C)C(=O)N1 :: 104
CNC(=O)[C@H](Cc1cccnc1)NC(=O)C1(NC(=O)[C@@H]2CCC(=O)NCc3ccc(cc3)CC(=O)N[C@@H](CO)C(=O)N[C@H]3CCC(=O)NCC[C@H](NC(=O)[C@H](CCC(N)=O)NC(=O)[C@H](Cc4c[nH]c5ccccc45)NC3=O)C(=O)N[C@@H](Cc3ccc(OCCN)cc3)C(=O)N[C@@H](Cc3ccc4ccccc4c3)C(=O)N[C@@](C)(CC(C)C)C(=O)N2)CCOCC1 :: 101
CNC(=O)[C@H](Cc1cccnc1)NC(=O)[C@@H](CO)NC(=O)[C@@H]1CCC(=O)NCc2ccc(cc2)CC(=O)N[C@@H](CO)C(=O)N[C@H]2CCC(=O)NCC[C@H](NC(=O)[C@H](CCC(N)=O)NC(=O)[C@H](Cc3c[nH]c4ccccc34)NC2=O)C(=O)N[C@@H](Cc2ccc(OCCN)cc2)C(=O)N[C@@H](Cc2ccc3ccccc3c2)C(=O)N[C@@](C)(CC(C)C)C(=O)N1 :: 102

Input: Dear colleague, I am looking for the recorded % displacement (hIL-23R binding) of the following molecule: CC(C)C[C@]1(C)NC(=O)[C@H](Cc2ccc3ccccc3c2)NC(=O)[C@H](Cc2ccc(OCCN)cc2)NC(=O)[C@@H]2CCNC(=O)CC[C@H](NC(=O)[C@H](CO)NC(=O)Cc3ccc(cc3)CNC(=O)CC[C@@H](C(=O)N[C@@H](CCN)C(=O)N[C@@](C)(Cc3cccnc3)C(N)=O)NC1=O)C(=O)N[C@@H](Cc1c[nH]c3ccccc13)C(=O)N[C@@H](CCC(N)=O)C(=O)N2
Output: 99

Input: For CC(C)C[C@@H](CC(N)=O)NC(=O)[C@H](Cc1cccnc1)NC(=O)[C@H](CCN)NC(=O)[C@@H]1CCC(=O)NCc2ccc(cc2)CC(=O)N[C@@H](CO)C(=O)N[C@H]2CCC(=O)NCC[C@H](NC(=O)[C@H](CCC(N)=O)NC(=O)[C@H](Cc3c[nH]c4ccccc34)NC2=O)C(=O)N[C@@H](Cc2ccc(OCCN)cc2)C(=O)N[C@@H](Cc2ccc3ccccc3c2)C(=O)N[C@@](C)(CC(C)C)C(=O)N1 [Compound 11] ([X1]SEWQ[Dab][AEF][2Nal][αMeL]E[Dab][3Pal][β3hL]-NH2; lactam 3-6, N-10) , what is its reported % displacement (hIL-23R binding)?
Output: 103
